Numbers sourced from patent US7732440B2.

tgt: Human glucokinase (Homo sapiens)
Construct: the glucokinase polypeptide beginning with Ser-6 is obtained; GST (N, cleaved yes); made in house; host or cells: E. coli BL21
Sequence (P35557 6-464 isoform P35557-3 limits assumed): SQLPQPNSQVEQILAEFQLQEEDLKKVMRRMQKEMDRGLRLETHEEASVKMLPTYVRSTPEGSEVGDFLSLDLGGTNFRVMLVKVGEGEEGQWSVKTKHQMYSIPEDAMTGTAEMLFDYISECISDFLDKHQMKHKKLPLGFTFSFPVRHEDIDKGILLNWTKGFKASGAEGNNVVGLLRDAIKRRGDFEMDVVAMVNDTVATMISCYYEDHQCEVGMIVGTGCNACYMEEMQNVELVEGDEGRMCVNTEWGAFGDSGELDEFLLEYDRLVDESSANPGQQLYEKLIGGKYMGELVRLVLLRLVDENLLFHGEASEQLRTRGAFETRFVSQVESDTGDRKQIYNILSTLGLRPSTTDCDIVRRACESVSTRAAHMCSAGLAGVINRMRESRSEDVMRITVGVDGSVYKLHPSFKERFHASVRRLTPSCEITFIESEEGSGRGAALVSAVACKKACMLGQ
assay-details: Enzymatic test of glucokinase activators (coupled optical test)
Assay type: biochemical
details: concentration of test compound which increases the enzymatic activity by 50% (0 μM = 100%); 25° C., 5 mM glucose, 1 mM ATP, pH 7
recorded-endpoint: Concentration raising glucokinase activity by 50% (EC150) (nM)

- compound: "Cc1ccc(NC(=O)C(CC2CCOCC2)c2ccc3c(c2)N(C)c2ccccc2S3(=O)=O)nn1 (stereo not shown)"
  measurement: 15500
- compound: "CN1c2ccccc2S(=O)(=O)c2ccc(C(CC3CCCC3)C(=O)Nc3nccs3)cc21 (stereo not shown)"
  measurement: 2200
- compound: "COc1ccc2nc(NC(=O)C(CC3CCOCC3)c3ccc4c(c3)N(C)c3ccccc3S4(=O)=O)sc2n1 (stereo not shown)"
  measurement: 900
- compound: "COc1ccc2nc(NC(=O)C(C[C@H]3CCC(=O)C3)c3ccc4c(c3)N(C)c3ccccc3S4(=O)=O)sc2n1 (stereo partly shown)"
  measurement: 700
- compound: "CN1c2ccccc2S(=O)(=O)c2ccc(C(CC3CCC(=O)CC3)C(=O)Nc3ccn(C)n3)cc21 (stereo not shown)"
  measurement: 500

A. CN1c2ccccc2S(=O)(=O)c2ccc(C(CC3CCOCC3)C(=O)Nc3nccs3)cc21 (stereo not shown)
B. Cn1ccc(NC(=O)C(CC2CC=C(F)CC2)c2ccc3c(c2)Nc2ccccc2S3(=O)=O)n1 (stereo not shown)
Query string: Determine, for A and B , which has the greater value of Concentration raising glucokinase activity by 50% (EC150). Please respond with the label that marks your chosen entry.
Result string: A

a. CCOC(=O)c1ccc2c(c1)S(=O)(=O)c1ccc(C(CC3CCC(=O)C3)C(=O)Nc3ccn(C)n3)cc1N2C (stereo not shown)
b. CN1c2ccccc2S(=O)(=O)c2ccc(C(CC3CCOCC3)C(=O)Nc3ccn(C)n3)cc21 (stereo not shown)
c. Cn1ccc(NC(=O)C(C[C@H]2CCC(=O)C2)c2ccc3c(c2)Nc2ccccc2S3(=O)=O)n1 (stereo partly shown)
Query string: Rank order required: Concentration raising glucokinase activity by 50% (EC150), descending. Put the labels in the requested order and write them down.
Result string: b, a, c

----------
tgt: Human glucokinase (Homo sapiens)
Construct: the glucokinase polypeptide beginning with Ser-6 is obtained; GST (N, cleaved yes); made in house; host or cells: E. coli BL21
assay-details: Enzymatic test of glucokinase activators (coupled optical test)
Format: biochemical
details: maximum fold stimulation: highest change in extinction in the concentration range 0.1-100 μM relative to change without test substance; 5 mM glucose
recorded-endpoint: Fold induction

- compound: "CN1c2ccccc2S(=O)(=O)c2ccc(C(CC3CCOCC3)C(=O)Nc3ccn(C)n3)cc21 (stereo not shown) [Example 5]"
  measurement: 4.4
- compound: "Cn1ccc(NC(=O)C(C[C@H]2CCC(=O)C2)c2ccc3c(c2)Nc2ccccc2S3(=O)=O)n1 (stereo partly shown) [Example 46]"
  measurement: 5.0
- compound: "CN1c2ccccc2S(=O)(=O)c2ccc(C(CC3CCCC3)C(=O)Nc3nccs3)cc21 (stereo not shown) [Example 9]"
  measurement: 2.8
- compound: "Cc1ccc(NC(=O)C(CC2CCOCC2)c2ccc3c(c2)N(C)c2ccccc2S3(=O)=O)nn1 (stereo not shown) [Example 6]"
  measurement: 2.1

1. CN1c2ccccc2S(=O)(=O)c2ccc(C(CC3CCC(=O)CC3)C(=O)Nc3ccn(C)n3)cc21 (stereo not shown) [Example 36]
2. CN1c2ccccc2S(=O)(=O)c2ccc(C(CC3CCOCC3)C(=O)Nc3nccs3)cc21 (stereo not shown) [Example 1]
Query string: For the two items 1 and 2 , which reports the higher Fold induction value? Indicate which entry you chose by stating its label.
Result string: 1
